These measurements were taken from ChEMBL document CHEMBL1154345.

Test: Oral bioavailability in cynomolgus monkey at 1 mg/kg
Assay type: ADME, organism-based, Macaca fascicularis
Conditions: in vivo
quantity.measured: bioavailability (%)

Documented bioavailability of `CS(=O)(=O)Nc1ccc2c(c1)S(=O)(=O)N=C(C1=C(O)[C@@H]3[C@H]4CC[C@H](C4)[C@@H]3N(Cc3ccc(F)c(F)c3)C1=O)N2` : 45

(a) CS(=O)(=O)Nc1ccc2c(c1)S(=O)(=O)N=C(C1=C(O)[C@@H]3[C@H]4CC[C@H](C4)[C@@H]3N(Cc3ccc(F)cc3)C1=O)N2 [SETROBUVIR]
(b) Cc1cc(CN2C(=O)C(C3=NS(=O)(=O)c4cc(NS(C)(=O)=O)ccc4N3)=C(O)[C@@H]3[C@H]4CC[C@H](C4)[C@@H]32)ccc1F
(c) CS(=O)(=O)Nc1ccc2c(c1)S(=O)(=O)N=C(C1=C(O)[C@@H]3[C@@H]([C@H]4CC[C@@H]3O4)N(Cc3ccc(F)cc3)C1=O)N2
Q) Order the records so the highest bioavailability appears first and the lowest last. Answer by listing the labels in the order asked for.
A) a, b, c

---

Assay: Clearance in cynomolgus monkey at 0.5 mg/kg, iv
Type: ADME, organism-based, Macaca fascicularis
Parameters: dose 0.5 mg/kg, route intravenous
Conditions: in vivo
quantity.measured: clearance (mL/min/kg)

Per the records, this compound ( `CS(=O)(=O)Nc1ccc2c(c1)S(=O)(=O)N=C(C1=C(O)[C@H]3[C@@H]4CC[C@@H](C4)[C@H]3N(Cc3ccc(F)cc3)C1=O)N2` ) has clearance equal to 6.5

Input `CS(=O)(=O)Nc1ccc2c(c1)S(=O)(=O)N=C(C1=C(O)[C@H]3[C@H]4CC[C@H](C4)[C@H]3N(Cc3ccc(F)cc3)C1=O)N2` . Output clearance: 5.7

---

Test system: Cynomolgus monkey
Assay: AUC (0 to infinity) in cynomolgus monkey at 0.5 mg/kg, po
Format: ADME, organism-based, Macaca fascicularis, Plasma
Set-up: time infinity, dose 0.5 mg/kg, route oral
Settings: in vivo
quantity.measured: AUC (ng·h/mL)

(A) CS(=O)(=O)Nc1ccc2c(c1)S(=O)(=O)N=C(C1=C(O)[C@H]3[C@@H]4CC[C@@H](C4)[C@H]3N(Cc3ccc(F)cc3)C1=O)N2
(B) CS(=O)(=O)Nc1ccc2c(c1)S(=O)(=O)N=C(C1=C(O)[C@H]3[C@H]4CC[C@H](C4)[C@H]3N(Cc3ccc(F)cc3)C1=O)N2
Q) Hi there, can you help? I need to know whether A or B has lower measured AUC. Bench note: the answer is the label of the chosen record.
A) A
(A: 163 ng·h/mL, B: 409 ng·h/mL)

---

Assay: Cytotoxicity against human HuH7 cells assessed as GAPDH release
Type: cell-based, Huh-7
Recorded measurements of CC50, one per entry

Study these solved cases before continuing.
Per the records, this compound ( `CS(=O)(=O)Nc1ccc2c(c1)S(=O)(=O)N=C(C1=C(O)[C@H]3[C@@H]4CC[C@@H](C4)[C@H]3N(Cc3ccc(F)cc3)C1=O)N2` ) has CC50 equal to > 33 µM

The compound listed as `CS(=O)(=O)Nc1ccc2c(c1)S(=O)(=O)NC(C1=C(O)[C@@H]3CCC[C@@H]3N(Cc3ccc(F)cc3)C1=O)=N2` has a reported CC50 of > 100 µM

Please fill in: CC50 reported for `CS(=O)(=O)Nc1ccc2c(c1)S(=O)(=O)N=C(C1=C(O)[C@@H]3[C@@H]4CC[C@@H](C4)[C@@H]3N(Cc3ccc(F)cc3)C1=O)N2` = > 1 µM

# CC50 of `CS(=O)(=O)Nc1ccc2c(c1)S(=O)(=O)N=C(C1=C(O)[C@H]3[C@H]4CC[C@H](C4)[C@H]3N(Cc3ccc(F)cc3)C1=O)N2` = > 33 µM

For this compound ( `CS(=O)(=O)Nc1ccc2c(c1)S(=O)(=O)N=C(C1=C(O)[C@@H]3[C@H]4CC[C@H](C4)[C@@H]3N(Cc3ccc(F)cc3)C1=O)N2` ), measured CC50 is > 100 µM

Below: the item to evaluate.
Looking up CS(=O)(=O)Nc1ccc2c(c1)S(=O)(=O)N=C(C1=C(O)C3C4CCC(C4)C3N(Cc3ccc(F)cc3)C1=O)N2 (racemic; 2a) , I found its CC50 recorded as > 1 µM

---

Assay: Clearance in cynomolgus monkey at 1 mg/kg, iv
Type: ADME, organism-based, Macaca fascicularis
Design: dose 1 mg/kg, route intravenous
Conditions: in vivo
quantity.measured: clearance (mL/min/kg)

(P) CS(=O)(=O)Nc1ccc2c(c1)S(=O)(=O)N=C(C1=C(O)[C@@H]3[C@H]4CC[C@H](C4)[C@@H]3N(Cc3ccc(F)c(F)c3)C1=O)N2
(Q) CS(=O)(=O)Nc1ccc2c(c1)S(=O)(=O)N=C(C1=C(O)[C@@H]3[C@@H]([C@H]4CC[C@@H]3O4)N(Cc3ccc(F)cc3)C1=O)N2
(R) CS(=O)(=O)Nc1ccc2c(c1)S(=O)(=O)N=C(C1=C(O)[C@@H]3[C@H]4CC[C@H](C4)[C@@H]3N(Cc3ccc(F)cc3)C1=O)N2
(S) Cc1cc(CN2C(=O)C(C3=NS(=O)(=O)c4cc(NS(C)(=O)=O)ccc4N3)=C(O)[C@@H]3[C@H]4CC[C@H](C4)[C@@H]32)ccc1F
Q) Please put the entries in order of rising clearance. // format: requested-order list of labels
A) R, P, S, Q
(R: 0.18 mL/min/kg, P: 0.37 mL/min/kg, S: 0.67 mL/min/kg, Q: 6.3 mL/min/kg)

---

Experiment: Oral bioavailability in cynomolgus monkey at 0.5 mg/kg
Type: ADME, organism-based, Macaca fascicularis
Settings: in vivo
quantity.measured: bioavailability (%)

(a) CS(=O)(=O)Nc1ccc2c(c1)S(=O)(=O)N=C(C1=C(O)[C@H]3[C@@H]4CC[C@@H](C4)[C@H]3N(Cc3ccc(F)cc3)C1=O)N2
(b) CS(=O)(=O)Nc1ccc2c(c1)S(=O)(=O)N=C(C1=C(O)[C@H]3[C@H]4CC[C@H](C4)[C@H]3N(Cc3ccc(F)cc3)C1=O)N2
Q) # argmax over bioavailability for candidates a and b Your answer should be the label of the entry you select.
A) b
(b: 26%, a: 12%)

---

Assay: in vitro
Conditions: human, microsomes, t1/2
quantity.measured: half-life at 1 µM (min)

(a) CC(C)(C)CCN1C(=O)C(C2=NS(=O)(=O)c3cc(NS(C)(=O)=O)ccc3N2)=C(O)[C@@H]2[C@H]3CC[C@H](C3)[C@@H]21
(b) CS(=O)(=O)Nc1ccc2c(c1)S(=O)(=O)N=C(C1=C(O)[C@@H]3[C@@H]4CC[C@@H](C4)[C@@H]3N(CC3CCCC3)C1=O)N2
(c) CS(=O)(=O)Nc1ccc2c(c1)S(=O)(=O)N=C(C1=C(O)[C@@H]3C4CCC(CC4)[C@@H]3N(CC(F)(F)F)C1=O)N2
Q) Reorder the list above by recorded half-life at 1 µM in ascending order. Your task in answering is to list the labels in the requested order.
A) a, c, b
(a: 4 min, c: 6 min, b: 17 min)

---

Assay: in vitro
Settings: human, liver microsomes, t1/2
quantity.measured: half-life at 1 µM

Study these solved cases before continuing.
What the record says about `COc1cccc(CN2C(=O)C(C3=NS(=O)(=O)c4cc(NS(C)(=O)=O)ccc4N3)=C(O)[C@@H]3C4CCC(CC4)[C@@H]32)c1` : half-life at 1 µM is > 1 h

# molecule `CS(=O)(=O)Nc1ccc2c(c1)S(=O)(=O)N=C(C1=C(O)[C@@H]3[C@H]4CC[C@H](C4)[C@@H]3N(Cc3ccccc3Cl)C1=O)N2` ; its half-life at 1 µM = > 1 h

Noted for `CC(C)CCN1C(=O)C(C2=NS(=O)(=O)c3cc(NS(C)(=O)=O)ccc3N2)=C(O)[C@@H]2[C@H]3CC[C@H](C3)[C@@H]21` : its half-life at 1 µM reads 0.617 h

Per the record, `Cc1cc(CN2C(=O)C(C3=NS(=O)(=O)c4cc(NS(C)(=O)=O)ccc4N3)=C(O)[C@@H]3[C@H]4CC[C@H](C4)[C@@H]32)ccc1F` has half-life at 1 µM of > 1 h

half-life at 1 µM reading for `CC(C)CCN1C(=O)C(C2=NS(=O)(=O)c3cc(NS(C)(=O)=O)ccc3N2)=C(O)[C@@H]2C3CCC(CC3)[C@@H]21` : 0.983 h

---
# half-life at 1 µM (molecule: `CS(=O)(=O)Nc1ccc2c(c1)S(=O)(=O)N=C(C1=C(O)[C@@H]3[C@H]4CC[C@H](C4)[C@@H]3N(Cc3ccc(F)c(F)c3F)C1=O)N2` ) is > 1 h

Sample `CS(=O)(=O)Nc1ccc2c(c1)S(=O)(=O)NC(C1=C(O)[C@@H]3[C@@H]4CC[C@@H](C4)[C@@H]3N(Cc3ccc(F)c(F)c3)C1=O)=N2` ; half-life at 1 µM observed: > 1 h

half-life at 1 µM reading for `CS(=O)(=O)Nc1ccc2c(c1)S(=O)(=O)N=C(C1=C(O)[C@@H]3C4CCC(CC4)[C@@H]3N(Cc3ccccc3F)C1=O)N2` : > 1 h

The value of half-life at 1 µM measured for the molecule `CS(=O)(=O)Nc1ccc2c(c1)S(=O)(=O)N=C(C1=C(O)[C@@H]3[C@H]4CC[C@H](C4)[C@@H]3N(CC3CCCCC3)C1=O)N2` turned out to be 0.733 h

In plain terms, `CS(=O)(=O)Nc1ccc2c(c1)S(=O)(=O)N=C(C1=C(O)[C@@H]3C4CCC(CC4)[C@@H]3N(Cc3ccc(Cl)cc3)C1=O)N2` has a documented half-life at 1 µM of > 1 h

Lab note: `CS(=O)(=O)Nc1ccc2c(c1)S(=O)(=O)N=C(C1=C(O)[C@@H]3C4CCC(CC4)[C@@H]3N(Cc3ccc(F)c(F)c3F)C1=O)N2` gave half-life at 1 µM of > 1 h

For reference, reported half-life at 1 µM for `CS(=O)(=O)Nc1ccc2c(c1)S(=O)(=O)N=C(C1=C(O)[C@@H]3[C@@H]4CC[C@@H](C4)[C@@H]3N(Cc3ccccc3F)C1=O)N2` stands at > 1 h
